The measured values listed here are drawn from patent US7084151B2.

Target: PR (Homo sapiens, UniProt P06401)
Construct: expressed in transfected cells; host or cells: CV-1 cells (African green monkey kidney fibroblasts), transiently transfected
Sequence (P06401 1-933): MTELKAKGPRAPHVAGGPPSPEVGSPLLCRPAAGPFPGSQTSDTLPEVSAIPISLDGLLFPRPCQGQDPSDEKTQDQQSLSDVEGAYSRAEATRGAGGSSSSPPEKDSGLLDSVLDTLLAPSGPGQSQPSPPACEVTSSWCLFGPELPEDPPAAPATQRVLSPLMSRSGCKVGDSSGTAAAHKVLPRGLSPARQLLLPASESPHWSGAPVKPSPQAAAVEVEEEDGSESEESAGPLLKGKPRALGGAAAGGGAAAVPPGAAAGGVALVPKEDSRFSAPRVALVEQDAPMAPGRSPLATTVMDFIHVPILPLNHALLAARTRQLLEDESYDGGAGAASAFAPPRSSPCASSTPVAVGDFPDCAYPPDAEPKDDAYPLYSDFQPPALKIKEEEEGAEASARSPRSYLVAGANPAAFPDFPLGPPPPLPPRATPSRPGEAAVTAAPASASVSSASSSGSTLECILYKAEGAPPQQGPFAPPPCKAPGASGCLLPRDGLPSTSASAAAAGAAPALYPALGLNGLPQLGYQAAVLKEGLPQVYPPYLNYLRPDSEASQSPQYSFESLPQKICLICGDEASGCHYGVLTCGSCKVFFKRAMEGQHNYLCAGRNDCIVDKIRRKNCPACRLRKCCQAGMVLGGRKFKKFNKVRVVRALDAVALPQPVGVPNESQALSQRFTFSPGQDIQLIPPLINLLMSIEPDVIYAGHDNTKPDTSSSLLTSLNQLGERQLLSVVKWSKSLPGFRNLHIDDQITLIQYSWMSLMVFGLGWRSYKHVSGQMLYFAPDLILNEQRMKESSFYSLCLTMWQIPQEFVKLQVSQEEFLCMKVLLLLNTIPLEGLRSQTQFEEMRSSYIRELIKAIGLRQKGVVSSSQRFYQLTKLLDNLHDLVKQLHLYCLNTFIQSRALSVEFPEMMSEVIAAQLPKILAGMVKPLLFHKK
Experiment: Cotransfection assay, PR agonist activity in CV-1 cells
Assay type: cell-based
Settings: CV-1; read-out: PR Agonist CV-1 Cells Efficacy
RESULT TYPE: Emax (%)
The reply should contain only the number, in %.

Use the examples below as a reference point.
Query (compound): CC1=CC(C)(C)Nc2ccc3c(c21)C(=C1CCCCC1)Oc1c(F)cc(F)cc1-3 ; field requested: Emax
82

Query (compound): CC1=CC(C)(C)Nc2ccc3c(c21)C(=C1CCCCC1)Oc1c(F)cccc1-3 ; field requested: Emax
48

Query (compound): CC1=CC(C)(C)Nc2ccc3c(c21)C(=C1C=CCCC1)Oc1c(F)cccc1-3 ; field requested: Emax
70

Continuing:
Query (compound): COc1ccc2c(c1)OC(=C1SCCCS1)c1c-2ccc2c1C(C)=CC(C)(C)N2 ; field requested: Emax
56

Query (compound): CC1=CC(C)(C)Nc2ccc3c(c21)C(=C1SCCCS1)Oc1c(F)cc(F)cc1-3 ; field requested: Emax
155

Query (compound): CC1(C)C=Cc2c(ccc3c2C(=C2SCCCS2)Oc2c(F)cccc2-3)N1 ; field requested: Emax
45

Query (compound): CC1=CC(C)(C)Nc2ccc3c(c21)C(=C1SCCCS1)Oc1c(F)cccc1-3 ; field requested: Emax
107

Query (compound): CC(=O)[C@H]1CC[C@H]2[C@@H]3CCC4=CC(=O)CC[C@]4(C)[C@H]3CC[C@]12C [Prog, progesterone, reference compound] ; field requested: Emax
100

Query (compound): CC1=CC(C)(C)Nc2ccc3c(c21)C(=C1SCCCS1)Oc1ccc(F)cc1-3 ; field requested: Emax
144

---

Below, each entry is listed alongside its reported pEC50.
Target: PR (Homo sapiens, UniProt P06401)
Construct: expressed in transfected cells; host or cells: CV-1 cells (African green monkey kidney fibroblasts), transiently transfected
Sequence (P06401 1-933): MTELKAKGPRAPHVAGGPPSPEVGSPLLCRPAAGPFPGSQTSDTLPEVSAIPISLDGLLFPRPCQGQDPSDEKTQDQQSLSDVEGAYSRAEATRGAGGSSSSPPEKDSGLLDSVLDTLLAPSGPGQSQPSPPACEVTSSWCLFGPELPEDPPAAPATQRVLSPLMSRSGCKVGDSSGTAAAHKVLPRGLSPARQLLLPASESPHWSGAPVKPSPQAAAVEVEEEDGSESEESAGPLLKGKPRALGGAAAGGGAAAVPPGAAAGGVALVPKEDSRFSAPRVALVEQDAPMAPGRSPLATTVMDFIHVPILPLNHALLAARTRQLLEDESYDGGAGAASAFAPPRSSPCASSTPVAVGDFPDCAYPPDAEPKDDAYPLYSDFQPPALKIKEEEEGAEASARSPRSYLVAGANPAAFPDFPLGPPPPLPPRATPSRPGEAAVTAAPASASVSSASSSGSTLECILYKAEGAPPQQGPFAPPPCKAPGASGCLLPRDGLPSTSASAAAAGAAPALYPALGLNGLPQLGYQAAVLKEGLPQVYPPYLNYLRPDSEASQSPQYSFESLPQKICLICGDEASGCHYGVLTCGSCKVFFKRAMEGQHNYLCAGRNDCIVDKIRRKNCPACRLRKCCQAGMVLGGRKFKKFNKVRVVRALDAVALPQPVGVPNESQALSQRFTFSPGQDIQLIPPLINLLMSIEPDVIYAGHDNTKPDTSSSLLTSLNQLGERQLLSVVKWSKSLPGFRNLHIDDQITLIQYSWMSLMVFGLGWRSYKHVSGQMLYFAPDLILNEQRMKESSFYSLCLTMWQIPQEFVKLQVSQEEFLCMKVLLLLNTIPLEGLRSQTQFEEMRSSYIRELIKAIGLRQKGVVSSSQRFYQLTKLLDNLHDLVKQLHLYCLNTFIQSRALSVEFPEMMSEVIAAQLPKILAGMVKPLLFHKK
Test: Cotransfection assay, PR agonist activity in CV-1 cells
Format: cell-based
Conditions: CV-1 cells; MTV-LUC reporter; read-out: PR Agonist CV-1 Cells Potency (EC50)
API: returns pEC50 as number; meaning -log10 of concentration in mol/L.

Use the examples below as a reference point.
Query (compound): CC1=CC(C)(C)Nc2ccc3c(c21)C(=C1SCCCS1)Oc1c(F)cccc1-3 ; field requested: pEC50
7.96

Query (compound): CC1=CC(C)(C)Nc2ccc3c(c21)C(=C1CCCCC1)Oc1c(F)cccc1-3 ; field requested: pEC50
7.42

Query (compound): CC1=CC(C)(C)Nc2ccc3c(c21)C(=C1C=CCCC1)Oc1c(F)cccc1-3 ; field requested: pEC50
7.46

Query (compound): CC1=CC(C)(C)Nc2ccc3c(c21)C(=C1SCCCS1)Oc1c(F)cc(F)cc1-3 ; field requested: pEC50
8.28

Continuing:
Query (compound): CC1=CC(C)(C)Nc2ccc3c(c21)C(=C1CCCCC1)Oc1c(F)cc(F)cc1-3 ; field requested: pEC50
7.80

Query (compound): COc1ccc2c(c1)OC(=C1SCCCS1)c1c-2ccc2c1C(C)=CC(C)(C)N2 ; field requested: pEC50
7.49

Query (compound): CC1(C)C=Cc2c(ccc3c2C(=C2SCCCS2)Oc2c(F)cccc2-3)N1 ; field requested: pEC50
7.49

---

Biological target: PR (Homo sapiens, UniProt P06401)
Construct: expressed in transfected cells; host or cells: CV-1 cells (African green monkey kidney fibroblasts), transiently transfected
Assay: Cotransfection assay, PR antagonist activity in CV-1 cells
Type: cell-based
RESULT TYPE: IC50

Query (molecule): CC1=CC(C)(C)Nc2ccc3c(c21)C(=C1SCCCS1)Oc1ccc(F)cc1-3 [Compound 10] ; field requested: IC50
> 1 µM

---

Biological target: PR (Homo sapiens, UniProt P06401)
Construct: expressed in transfected cells; host or cells: CV-1 cells (African green monkey kidney fibroblasts), transiently transfected
Experiment: Cotransfection assay, PR agonist activity in CV-1 cells
Assay type: cell-based
RESULT TYPE: pEC50
API: returns pEC50 as number; meaning -log10 of concentration in mol/L.

Query (compound): CC1=CC(C)(C)Nc2ccc3c(c21)C(=C1SCCCS1)Oc1ccc(F)cc1-3 ; field requested: pEC50
8.70
